Origin of the recorded values: ChEMBL document CHEMBL4004819

Would you mind telling me the reported bioavailability of each entry?
test: Oral bioavailability in Sprague-Dawley rat plasma at 5 mg/kg administered via gavage by LC/MS/MS analysis; format: ADME, organism-based
Record the value in %, omitting the unit from your answer.

[ask] Supply bioavailability value. Item: "Nc1nc(N)c(Cl)c(N[C@H](c2nc3cccc(Cl)c3c(=O)n2-c2cc[nH]n2)C2CC2)n1"
[reply] 42

[ask] Give me measured bioavailability, please, for this compound: "N#Cc1c(N)nc(N)nc1N[C@H](c1nc2c(Cl)cc(F)cc2c(=O)n1-c1cc[nH]n1)C1CC1"
[reply] 12

[ask] Read the entry "C[C@H](Nc1nc(N)nc(N)c1Cl)c1nc2cccc(Cl)c2c(=O)n1-c1cc[nH]n1" and write its reported bioavailability.
[reply] 26
